# System: BDF1 mice, P388 leukemia ip, median survival T/C
# method_notes: NCI In Vivo Anticancer Drug Screen. Data for tumor model P388 Leukemia (intraperitoneal) in B6D2F1 (BDF1) mice
# settings: endpoint: median survival time; dose: 100.0 mg/kg/injection; schedule: Q01DX001 (ip); vehicle: Klucel (hydroxypropylcellulose) (HPC)
Toxic doses and inconclusive results are not listed. How the source made its calls: active means survival T/C of 150% or more; inactive means T/C below 125% in these data.
I would appreciate it if you answered using one of these outcomes: Y = active, N = inactive

Examples with answers:
In [3]: df
Out[3]:
                                   compound                                 tested_on  group
0          C=C(CCCCC)C(=O)/C=C/c1ccc(Cl)cc1  BDF1 mice, P388 leukemia ip, median survival T/C      N
1  Cc1ccccc1C1c2ccccc2C(=O)c2cccc(C)c21 (configuration not stated)  BDF1 mice, P388 leukemia ip, median survival T/C      N
2                   Brc1ccc(C#Cc2ccccc2)cc1  BDF1 mice, P388 leukemia ip, median survival T/C      N
3             Nc1cc(C(F)(F)F)ccc1S(=O)(=O)O  BDF1 mice, P388 leukemia ip, median survival T/C      N
4         CCOC(=O)c1c(C)[nH]c(C)c1-c1ccccc1  BDF1 mice, P388 leukemia ip, median survival T/C      N

Hi, do you know how "CC(=O)OCc1cc(=O)n(C)c2c3c4c(cc12)c(C)cc(=O)n4CO3" came out in this test?
N

Same question, "O=C(O)CCCCOc1ccc(N(CCCl)CCCl)cc1" this time
Y

Taken from PubChem BioAssay AID328.
